Reference for the values: the supplement of paper PMC6555819

system: THRa:RXRa (NR concentration 90 nM, RXRa partner concentration 90 nM); test: PBM binding z-score (relative to random genomic background probes); higher = stronger binding; sequences stand for … in GC…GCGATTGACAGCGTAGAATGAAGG
For each of the sequences below, state its PBM binding z-score.
Give bare numbers.

// worked examples, PBM binding z-score included
>  <SEQ_STRING>
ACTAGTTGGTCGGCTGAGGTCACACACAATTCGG

>  <PBM binding z-score>
4.77

$$$$
>  <SEQ_STRING>
ACCATTAGTTGACTTAGGGCAACCGATACGACGC

>  <PBM binding z-score>
1.61

$$$$
>  <SEQ_STRING>
CCTTACGGGTCAGTCCAGGTTATAGCATCGGAGT

>  <PBM binding z-score>
4.66

$$$$
>  <SEQ_STRING>
TCTAGTTGGTCACCGAGGTCACACACGACGGGTA

>  <PBM binding z-score>
4.2

$$$$

Batch lookup, PBM binding z-score per entry.
1. CATACAGGGTCAACTAGGCCAGAGTAGGGACGGC
2. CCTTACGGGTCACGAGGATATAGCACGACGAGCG

1. 3.74
2. 3.16

Batch lookup, PBM binding z-score per entry.
1. TCTGCCAGGTCAGTTGGTCAGCTAACGAGCTGCC
2. CAAACTAGGACACCGGAAGGTCAAAGTCCGCATG

1. 2.11
2. 3.71
